Source of measurements: patent US9255093B2

- experimental system: hERG (human ether-a-go-go-related gene) potassium channel (Homo sapiens, UniProt Q12809)
- Sequence (Q12809 whole entry): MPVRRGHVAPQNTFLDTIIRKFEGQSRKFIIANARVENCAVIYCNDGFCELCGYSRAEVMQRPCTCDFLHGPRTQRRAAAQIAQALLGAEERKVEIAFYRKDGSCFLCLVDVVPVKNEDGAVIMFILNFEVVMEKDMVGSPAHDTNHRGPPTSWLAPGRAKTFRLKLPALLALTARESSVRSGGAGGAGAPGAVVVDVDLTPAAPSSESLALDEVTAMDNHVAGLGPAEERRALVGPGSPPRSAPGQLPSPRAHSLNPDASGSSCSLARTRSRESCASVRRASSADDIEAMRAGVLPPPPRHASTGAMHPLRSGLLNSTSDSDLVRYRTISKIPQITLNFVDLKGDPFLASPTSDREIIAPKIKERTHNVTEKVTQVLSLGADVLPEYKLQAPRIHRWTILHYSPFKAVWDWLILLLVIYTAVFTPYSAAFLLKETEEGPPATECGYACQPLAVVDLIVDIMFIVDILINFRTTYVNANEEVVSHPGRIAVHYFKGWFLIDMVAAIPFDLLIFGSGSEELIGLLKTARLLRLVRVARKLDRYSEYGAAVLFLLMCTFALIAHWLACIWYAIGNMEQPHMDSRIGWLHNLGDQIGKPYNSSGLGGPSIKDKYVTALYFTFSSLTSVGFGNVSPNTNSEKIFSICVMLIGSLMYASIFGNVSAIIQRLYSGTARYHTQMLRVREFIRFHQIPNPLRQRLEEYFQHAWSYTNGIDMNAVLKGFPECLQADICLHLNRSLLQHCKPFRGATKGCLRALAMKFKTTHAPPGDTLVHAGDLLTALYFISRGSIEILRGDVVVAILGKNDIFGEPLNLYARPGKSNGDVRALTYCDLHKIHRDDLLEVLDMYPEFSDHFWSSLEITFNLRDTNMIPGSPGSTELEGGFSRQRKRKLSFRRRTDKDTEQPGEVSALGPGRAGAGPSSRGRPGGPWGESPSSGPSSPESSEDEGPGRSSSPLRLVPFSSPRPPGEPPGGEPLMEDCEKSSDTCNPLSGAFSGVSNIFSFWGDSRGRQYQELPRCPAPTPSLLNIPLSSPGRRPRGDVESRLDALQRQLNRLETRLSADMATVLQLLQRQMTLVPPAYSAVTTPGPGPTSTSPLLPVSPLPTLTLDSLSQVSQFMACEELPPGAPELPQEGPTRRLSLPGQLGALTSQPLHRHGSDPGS
- experiment summary: QPatch automated patch-clamp hERG activator 4-concentration EC50 assay
- condition summary: increase of hERG tail current amplitude at 7 second (TL7); 10 uM; hERG stably expressed in CHO cells
% change@TL7@10 uM strictly under 200% means TRUE; at 200% or over means FALSE.

Cc1cc2cc(-c3nnn[nH]3)oc2cc1CNc1ccc(OCC(F)(F)F)c(C(F)(F)F)c1 | FALSE
CCCc1cc(NCc2ccc3oc(C(=O)O)cc3c2)ccc1Cl | TRUE
Cc1cc(NCc2cc3oc(-c4nnn[nH]4)cc3cc2F)cc(C(F)(F)F)c1 | FALSE
Brc1cccc(NCc2ccc3cc(-c4nn[nH]n4)oc3c2)c1 | TRUE
Fc1cc2cc(-c3nnn[nH]3)oc2cc1CNc1ccc(C(F)(F)F)c(C(F)(F)F)c1 | FALSE
CCCc1ccc(NCc2cc3oc(-c4nnn[nH]4)cc3cc2F)cc1F | TRUE
CCOc1ccc(NCc2cc3oc(-c4nnn[nH]4)cc3cc2F)cc1Cl | FALSE
COc1cc2cc(-c3nnn[nH]3)oc2cc1CNc1ccc(OCC(F)(F)F)c(C(F)(F)F)c1 | FALSE
CCCc1ccc(NCc2ccc3oc(-c4nnn[nH]4)cc3c2)cc1OC(F)(F)F | TRUE
O=C(O)c1cc2cc(F)c(CNc3ccc(OCC(F)(F)F)c(C(F)(F)F)c3)cc2o1 | FALSE
CC(C)Oc1ccc(NCc2cc3oc(-c4nnn[nH]4)cc3cc2Br)cc1C(F)(F)F | FALSE
CC(C)c1ccc(NCc2cc3oc(-c4nnn[nH]4)cc3cc2Cl)cc1C(F)(F)F | FALSE
CCCc1ccc(NCc2ccc3oc(-c4nnn[nH]4)cc3c2)cc1Cl | TRUE
FC(F)(F)Oc1cc(NCc2cc3oc(-c4nnn[nH]4)cc3cc2Cl)ccc1Cl | TRUE
CCCc1ccc(NCc2ccc3oc(-c4nnn[nH]4)cc3c2)cc1F | TRUE
CSc1ccc(NCc2ccc3cc(C(=O)O)oc3c2)cc1C(F)(F)F | TRUE
FC(F)Oc1ccc(NCc2cc3cc(-c4nnn[nH]4)oc3cc2Cl)cc1C(F)(F)F | FALSE
FC(F)(F)COc1ccc(NCc2ccc3cc(-c4nn[nH]n4)oc3c2)cc1Cl | TRUE
CCCc1ccc(NCc2ccc3c(C)c(-c4nnn[nH]4)oc3c2)cc1C(F)(F)F | TRUE
O=C(O)c1cc2cc(F)c(CNc3cc(C(F)(F)F)c(Br)c(C(F)(F)F)c3)cc2o1 | FALSE
O=C(O)c1oc2cc(CNc3ccc(OC(F)(F)F)c(Br)c3)ccc2c1C(F)(F)F | TRUE
FC(F)COc1ccc(NCc2cc3oc(-c4nnn[nH]4)cc3cc2Cl)cc1C(F)(F)F | FALSE
FC1(F)Oc2ccc(NCc3ccc4cc(-c5nn[nH]n5)oc4c3)cc2O1 | TRUE
O=C(O)c1cc2ccc(CNc3ccc(OCC(F)(F)F)c(C(F)(F)F)c3)cc2o1 | TRUE
Fc1cc2cc(-c3nnn[nH]3)oc2cc1CNc1ccc(Cl)c(Cl)c1 | FALSE
Fc1cc2oc(-c3nnn[nH]3)cc2cc1CNc1ccc(Cl)c(Cl)c1 | TRUE
FC(F)Oc1ccc(NCc2ccc3cc(-c4nn[nH]n4)oc3c2)cc1Cl | FALSE
CC(Nc1ccc2c(c1)OC(F)(F)O2)c1ccc2oc(-c3nnn[nH]3)cc2c1 (stereo not shown) | TRUE
CC(Nc1ccc(SC(F)(F)F)c(Cl)c1)c1ccc2oc(-c3nnn[nH]3)cc2c1 (stereo not shown) | TRUE
O=C(O)c1cc2cc(F)c(CNc3ccc(OCC(F)(F)F)c(Cl)c3)cc2o1 | TRUE
Cc1c(-c2nnn[nH]2)oc2cc(CNc3ccc(OC(F)(F)F)c(Br)c3)ccc12 | TRUE
O=C(O)c1cc2ccc(CNc3ccc(SC(F)(F)F)cc3)cc2o1 | TRUE
O=C(O)c1cc2ccc(CNc3ccc(OC(F)(F)F)c(Br)c3)cc2o1 | FALSE
